assay: reversal of MRP1-mediated doxorubicin resistance, pilot screen, H69AR cells, doxorubicin co-treatment (AID 601); conditions: H69AR cells + 2 uM doxorubicin, CellTiter-Glo, 72 h; measured here: viability with 2 uM doxorubicin; at 10 µM; stronger effect = lower value
OBSERVABLE: viability (%)
Write the answer as a number in %, unit excluded.

Here's what some known entries look like.
COMPOUND: Cc1ccc(CSc2nc3c(c(=O)[nH]2)C(c2ccncc2)C2=C(CCCC2=O)N3)cc1 (centres undefined)
viability / %: 91.1
--
COMPOUND: Cc1cccc(NC(=O)c2cnc3sccn3c2=O)n1
viability / %: 92.2
--
COMPOUND: COc1ccc(NC(=O)Cn2nnc(-c3ccccc3F)n2)cc1Cl
viability / %: 92.3

Consider the record given below.
**Q:** So what does the record say about viability for O=C(NC1CC1)C1CCC(=O)N1C1CCCC1 (centres undefined) ?
**A:** 88.4

###

assay: reversal of MRP1-mediated doxorubicin resistance, pilot screen, H69AR cells, doxorubicin co-treatment (AID 601); settings: H69AR cells + 2 uM doxorubicin, CellTiter-Glo, 72 h; measured here: viability with 2 uM doxorubicin; at 10 µM; stronger effect = lower value
# maps each entry to its viability
Dear colleague, please send the value followed by its unit.

COMPOUND: CC(C)(C)NC(=O)CN(C(=O)C1CSC(=O)C1)c1ccc2c(c1)OCCO2 (stereo not drawn)
OBS_VALUE: 92.6%
--
COMPOUND: CC(=O)OC(C)C[N+](C)(C)C (stereo not drawn)
OBS_VALUE: 89.3%
--
COMPOUND: N#CC1=C(N)OC2=C(C(=O)CCC2)C1CCc1ccccc1 (stereo not drawn)
OBS_VALUE: 89.3%

**Q:** So what does the record say about viability for COc1ccc2cc(C#N)c(N3CCN(Cc4nnnn4CCC(C)C)CC3)nc2c1 ?
**A:** 71.2%

**Q:** Follow-up entry: CCOC(=O)c1sc(NC(=O)CSc2ncn(-c3ccccc3)n2)nc1C
**A:** 88.1%

###

test: HUVEC growth inhibition – cell-based, human, primary screen (AID 575); settings: HUVEC proliferation, CellTiter-Glo luminescence, 72 h; at 10 µM; stronger effect = lower value;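 further: 100% = median of untreated cell wells with 0.1% DMSO on each plate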
OBSERVABLE: viability (%)
Write the answer as a number in %, unit excluded.

**Q:** So what does the record say about viability for Cc1cc(S(=O)(=O)N2CCN(c3ncccn3)CC2)ccc1-n1cnnn1 ?
**A:** 120

**Q:** Follow-up entry: CCC1CCCCN1C(=O)C1CC(c2cc(Cl)c(OC)cc2OC)=NO1 (stereo not drawn)
**A:** 89.7

**Q:** Follow-up entry: COc1cccc(-c2nc(-c3ccc(NC(=O)Cc4ccccc4OC)cc3)no2)c1
**A:** 85.3

**Q:** Follow-up entry: CC(C)C1N=C2c3ccccc3N=C(SCC(=O)NCCc3ccc(S(N)(=O)=O)cc3)N2C1=O (stereo not drawn)
**A:** 82.8

**Q:** Follow-up entry: O=C(NCCN1CCOCC1)NC1(C(F)(F)F)Oc2ccc(Cl)cc2O1 (stereo not drawn)
**A:** 57.1

**Q:** Follow-up entry: Cc1nn(CC(O)Cn2c3c(c4ccccc42)CCN(C)C3=O)c(C)c1Br (stereo not drawn)
**A:** 52.8

**Q:** Follow-up entry: COc1ccc(CC(=O)Nc2c3c(nn2-c2cccc(Cl)c2)CS(=O)C3)cc1 (stereo not drawn)
**A:** 95.6

**Q:** Follow-up entry: COc1ccc(N(CC(=O)Nc2ccccc2SC)S(C)(=O)=O)cc1OC
**A:** 113

**Q:** Follow-up entry: Cc1cc(NC(=O)c2ccc(Cl)cc2)no1
**A:** 96.1
